- protocolText: self-splicing fitness, log relative to wild type (ln ratio); higher = more splicing; Tetrahymena group I intron in knt gene, E. coli kanamycin selection, DiMSum; sequences stand for … in CUCUCU…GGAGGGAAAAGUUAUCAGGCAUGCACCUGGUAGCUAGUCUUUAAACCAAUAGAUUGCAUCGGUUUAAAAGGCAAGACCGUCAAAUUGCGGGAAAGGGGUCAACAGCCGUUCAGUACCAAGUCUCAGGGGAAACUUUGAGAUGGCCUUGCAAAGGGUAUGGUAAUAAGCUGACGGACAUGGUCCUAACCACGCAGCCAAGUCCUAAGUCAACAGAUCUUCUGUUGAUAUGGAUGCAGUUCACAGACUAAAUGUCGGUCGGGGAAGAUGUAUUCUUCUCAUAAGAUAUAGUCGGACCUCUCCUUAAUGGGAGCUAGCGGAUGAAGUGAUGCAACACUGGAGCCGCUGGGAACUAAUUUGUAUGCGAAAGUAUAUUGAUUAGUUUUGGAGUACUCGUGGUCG;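 note: selection with 25 µg/mL kanamycin versus none on LB agar overnight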
- conditionInfo: 30 °C
Respond with YES for self-splicing fitness (ln) values of -2 and above, NO for values below.

Recorded results for 9 sequences are shown here.
UCUAAGCAAUAUUACGAUAA ... YES
GUAAAGCAAUAUUACGAAUU ... NO
CGCUAGCAAUAUUACGAGUU ... NO
AAGGAGCAAUAUUACGGAAU ... NO
GUCGAGCAAUAUUACGUCUA ... YES
CCGGAGCAAUAUUACGAACU ... NO
CGGAAGCAAUAUUACGUAGG ... YES
UUGAAGCAAUAUUACGGCCA ... YES
CGAUAGCAAUAUUACGACAU ... NO

Turning now to a further sequence:
Item UGUGAGCAAUAUUACGGAUG with self-splicing fitness (ln) of -2 or above?
NO

* * *

- protocolText: self-splicing fitness, log relative to wild type (ln ratio); higher = more splicing; Tetrahymena group I intron in knt gene, E. coli kanamycin selection, DiMSum; sequences stand for … in CUCUCU…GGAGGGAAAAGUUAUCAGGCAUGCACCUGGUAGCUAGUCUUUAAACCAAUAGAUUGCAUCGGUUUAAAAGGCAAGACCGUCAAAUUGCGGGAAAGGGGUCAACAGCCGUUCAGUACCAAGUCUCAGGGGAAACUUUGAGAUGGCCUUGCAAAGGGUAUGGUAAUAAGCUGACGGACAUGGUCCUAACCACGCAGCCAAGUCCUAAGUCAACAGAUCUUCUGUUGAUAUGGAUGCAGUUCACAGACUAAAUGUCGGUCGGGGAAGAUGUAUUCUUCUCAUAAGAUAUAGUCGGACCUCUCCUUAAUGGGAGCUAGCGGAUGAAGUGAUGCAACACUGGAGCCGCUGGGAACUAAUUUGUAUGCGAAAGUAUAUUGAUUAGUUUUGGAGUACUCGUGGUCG
- conditionInfo: 30 °C
Respond with 1 for self-splicing fitness (ln) values of -2 and above, -1 for values below.

Recorded results for 5 sequences are shown here.
AUAAAGCAAUAUUACGUGAC ... -1
AGCAAGCAAUAUUACGGCCG ... 1
GAAAAGCAAUAUUACGUGUC ... -1
GAGGAGCAAUAUUACGUCAC ... -1
CCAGAGCAAUAUUACGUACG ... 1

Item CCAUAGCAAUAUUACGCGUU with self-splicing fitness (ln) of -2 or above?
-1

Try the sequence CCGCAGCAAUAUUACGCGUC
-1

* * *

Kindly supply the reported self-splicing fitness (ln) values for the records listed here.
- protocolText: self-splicing fitness, log relative to wild type (ln ratio); higher = more splicing; Tetrahymena group I intron in knt gene, E. coli kanamycin selection, DiMSum; sequences stand for … in CUCUCU…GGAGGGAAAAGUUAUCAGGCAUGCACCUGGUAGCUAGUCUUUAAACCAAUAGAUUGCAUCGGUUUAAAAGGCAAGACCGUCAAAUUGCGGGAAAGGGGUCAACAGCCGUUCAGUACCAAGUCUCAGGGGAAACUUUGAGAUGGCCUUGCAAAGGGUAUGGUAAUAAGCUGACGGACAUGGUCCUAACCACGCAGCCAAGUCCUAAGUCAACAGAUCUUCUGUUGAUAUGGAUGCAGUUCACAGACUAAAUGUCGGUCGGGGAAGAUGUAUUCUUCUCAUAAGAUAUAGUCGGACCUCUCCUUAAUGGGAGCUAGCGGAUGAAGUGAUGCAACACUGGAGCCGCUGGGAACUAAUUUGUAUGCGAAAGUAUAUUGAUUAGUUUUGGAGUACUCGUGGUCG
- conditionInfo: 30 °C
Answers are plain numbers.

Consider the worked cases shown below.
AUGUAGCAAUAUUACGUAAA ... -2.25
CCAAAGCAAUAUUACGCUGC ... -3.03

Which self-splicing fitness (ln) value is on record for ACGCAGCAAUAUUACGGUUA ?
-1.13

* * *

- protocolText: self-splicing fitness, log relative to wild type (ln ratio); higher = more splicing; Tetrahymena group I intron in knt gene, E. coli kanamycin selection, DiMSum; sequences stand for … in CUCUCU…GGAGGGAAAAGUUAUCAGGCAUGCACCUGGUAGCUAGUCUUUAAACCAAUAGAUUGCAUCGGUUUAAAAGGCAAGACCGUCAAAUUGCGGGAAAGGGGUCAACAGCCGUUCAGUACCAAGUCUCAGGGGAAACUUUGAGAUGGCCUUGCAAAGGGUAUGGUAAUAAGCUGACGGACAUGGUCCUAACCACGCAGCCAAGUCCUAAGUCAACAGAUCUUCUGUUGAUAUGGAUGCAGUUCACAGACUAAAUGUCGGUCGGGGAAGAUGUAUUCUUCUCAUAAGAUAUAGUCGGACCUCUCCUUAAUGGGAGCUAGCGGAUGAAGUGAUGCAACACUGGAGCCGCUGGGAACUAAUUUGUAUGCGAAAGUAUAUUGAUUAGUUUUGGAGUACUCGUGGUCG
- conditionInfo: 37 °C
Kindly supply the reported self-splicing fitness (ln) values for the records listed here.
Answers are plain numbers.

Consider the worked cases shown below.
GACCAGCAAUAUUACGGCAA ... -0.32
AAUCAGCAAUAUUACGUAAC ... -0.141
GAGUAGCAAUAUUACGUCAU ... -1.47
UGGUAGCAAUAUUACGAAAC ... -2.42
CGAAAGCAAUAUUACGAUGU ... -1.15

# batch: return self-splicing fitness (ln) for each of the 7 sequences below
1. AGGUAGCAAUAUUACGACUC
2. ACGGAGCAAUAUUACGAACU
3. GUCCAGCAAUAUUACGAAUA
4. UCUGAGCAAUAUUACGCCGU
5. GUGUAGCAAUAUUACGGGUU
6. AGCUAGCAAUAUUACGUGAU
7. UUUUAGCAAUAUUACGCAGA

1: -0.19; 2: -0.0683; 3: -0.595; 4: -1.56; 5: -1.22; 6: -1.79; 7: -0.506

# batch: return self-splicing fitness (ln) for each of the 3 sequences below
1. CAGUAGCAAUAUUACGCUCG
2. CCAUAGCAAUAUUACGUUUG
3. ACCAAGCAAUAUUACGGAGA

[-0.439, -0.897, -1.66]

# batch: return self-splicing fitness (ln) for each of the 8 sequences below
1. AUCGAGCAAUAUUACGUAAU
2. UUGCAGCAAUAUUACGGCAC
3. AACUAGCAAUAUUACGGUUG
4. CUAAAGCAAUAUUACGGUAG
5. CGUUAGCAAUAUUACGCUCG
6. CUAGAGCAAUAUUACGCGGC
7. UAACAGCAAUAUUACGUAUU
8. UGCAAGCAAUAUUACGAGGU

-1.25
-0.741
-0.299
-0.0448
-1.38
0.756
-1.94
-2.26

# batch: return self-splicing fitness (ln) for each of the 3 sequences below
1. UCCAAGCAAUAUUACGUGGU
2. CCACAGCAAUAUUACGGUGA
3. AGGUAGCAAUAUUACGCGCC

[-1.45, -0.339, -1.56]

* * *

- protocolText: self-splicing fitness, log relative to wild type (ln ratio); higher = more splicing; Tetrahymena group I intron in knt gene, E. coli kanamycin selection, DiMSum; sequences stand for … in CUCUCU…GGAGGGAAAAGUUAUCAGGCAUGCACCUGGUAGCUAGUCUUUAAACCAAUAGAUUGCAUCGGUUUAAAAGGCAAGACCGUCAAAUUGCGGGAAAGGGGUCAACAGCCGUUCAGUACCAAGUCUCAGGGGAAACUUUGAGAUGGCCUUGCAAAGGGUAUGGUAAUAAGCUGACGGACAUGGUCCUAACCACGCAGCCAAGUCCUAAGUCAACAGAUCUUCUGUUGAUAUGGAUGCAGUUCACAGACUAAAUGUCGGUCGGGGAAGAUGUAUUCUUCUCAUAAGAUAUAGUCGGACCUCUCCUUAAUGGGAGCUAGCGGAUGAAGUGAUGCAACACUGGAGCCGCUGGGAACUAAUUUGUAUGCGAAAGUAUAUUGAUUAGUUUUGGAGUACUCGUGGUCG
- conditionInfo: 37 °C
readoutLabel: self-splicing fitness (ln)
One number for each entry.

Consider the worked cases shown below.
UUUCAGCAAUAUUACGGAAG ... -0.536
GUAAAGCAAUAUUACGCUGU ... -1.16
CCGCAGCAAUAUUACGUGGC ... -2.3
AGACAGCAAUAUUACGGUAU ... -0.734
UAAAAGCAAUAUUACGUCUU ... -0.487

# batch: return self-splicing fitness (ln) for each of the 5 sequences below
1. GGUAAGCAAUAUUACGCACG
2. GACCAGCAAUAUUACGCGCA
3. UAGUAGCAAUAUUACGAACA
4. AAAAAGCAAUAUUACGAUCG
5. ACGGAGCAAUAUUACGCUCU

1: -0.102; 2: 0.131; 3: -0.405; 4: 0.0375; 5: -1.22

# batch: return self-splicing fitness (ln) for each of the 7 sequences below
1. UAUUAGCAAUAUUACGGAGG
2. ACCCAGCAAUAUUACGGCUA
3. GAAAAGCAAUAUUACGAGAU
4. AUGUAGCAAUAUUACGUGUA
5. CGCUAGCAAUAUUACGCGCC
6. ACAAAGCAAUAUUACGCACU
7. CCCUAGCAAUAUUACGCUCC

1. -1.84
2. 0.23
3. -2.08
4. -1.74
5. -2.24
6. 0.264
7. -2.13

# batch: return self-splicing fitness (ln) for each of the 8 sequences below
1. CGGAAGCAAUAUUACGUUGG
2. CAGAAGCAAUAUUACGGUUA
3. GACCAGCAAUAUUACGCUGA
4. ACAUAGCAAUAUUACGCGUU
5. ACUAAGCAAUAUUACGUCUG
6. CCGGAGCAAUAUUACGCGGA
7. UGCAAGCAAUAUUACGCGAG
8. AGACAGCAAUAUUACGGCCG

[-0.688, -1.72, -0.811, -2.39, -0.847, -2.74, -2.36, -0.403]

# batch: return self-splicing fitness (ln) for each of the 2 sequences below
1. UCGCAGCAAUAUUACGUCAC
2. CUGGAGCAAUAUUACGUUUG

1: -2.85; 2: -1.21

The reported measurements were obtained from the supplement of paper PMC7877785.
